Parameter viability, T/C: see the listing below.
# Tested on: 186277-243-T-J2-PDC complex spheroid viability
# experimental_details: Anticancer human tumor 186277-243-T-J2-PDC patient-derived colon adenocarcinoma cell line growth inhibition [GQUAD]
# test_parameters: second compound 3.16 µM; first compound 0.0316 µM; hits give low values
Respond numerically; units are % and should not be typed.

# annotated cases, reported viability, T/C shown
compound	unit_of_measure	viability, T/C
CC1COCCN1c1cc(C2(S(C)(=N)=O)CC2)nc(-c2ccnc3[nH]ccc23)n1 (centres undefined) + Cc1cnc(CNC(=O)c2c(=O)c3ccc(N4CCCN(C)CC4)nc3n3c2sc2ccccc23)cn1	%	41.8
CCc1c2c(nc3ccc(O)cc13)-c1cc3c(c(=O)n1C2)COC(=O)[C@]3(O)CC + Cc1cnc(CNC(=O)c2c(=O)c3ccc(N4CCCN(C)CC4)nc3n3c2sc2ccccc23)cn1	%	27.9
CC1COCCN1c1cc(C2(S(C)(=N)=O)CC2)nc(-c2ccnc3[nH]ccc23)n1 (centres undefined) + Cc1[nH]c2ccc(F)cc2c1-c1nc2c3cccnc3c3ncccc3c2[nH]1	%	102

Request: Recorded viability, T/C of CC[C@@]1(O)C(=O)OCc2c1cc1n(c2=O)Cc2cc3c(CN(C)C)c(O)ccc3nc2-1 + Cc1cnc(CNC(=O)c2c(=O)c3ccc(N4CCCN(C)CC4)nc3n3c2sc2ccccc23)cn1 , please.
Result: 40.7

====

# System: 186277-243-T-J2-PDC complex spheroid viability
# experimental_details: Anticancer human tumor 186277-243-T-J2-PDC cell line growth inhibition [GQUAD];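 note: spheroids exposed to drugs for 7 days; 100% = DMSO vehicle control viability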
# test_parameters: second compound 3.16 µM; first compound 0.0316 µM; hits give low values
Kindly apply the following: 1 (yes) if viability, T/C is less than 90%, 0 (no) in every other case.

Worked set:
compound	category_label
O=C(NO)c1cnc(N2CCN(S(=O)(=O)c3ccc4ccccc4c3)CC2)nc1 + CN(C)c1ccc(Nc2c3ccc(NC(=O)CCN4CCCC4)cc3nc3cc(NC(=O)CCN4CCCC4)ccc23)cc1	0 (no)
Nc1ccn(C2OC(CO)C(O)C2(F)F)c(=O)n1 (centres undefined) + Cc1cnc(CNC(=O)c2c(=O)c3ccc(N4CCCN(C)CC4)nc3n3c2sc2ccccc23)cn1	1 (yes)
COc1cc(C2c3cc4c(cc3C(OC3OC5COC(C)OC5C(O)C3O)C3COC(=O)C23)OCO4)cc(OC)c1O (centres undefined) + Cc1[nH]c2ccc(F)cc2c1-c1nc2c3cccnc3c3ncccc3c2[nH]1	0 (no)
COc1cc(C2c3cc4c(cc3C(OC3OC5COC(C)OC5C(O)C3O)C3COC(=O)C23)OCO4)cc(OC)c1O (centres undefined) + CN(C)c1ccc(Nc2c3ccc(NC(=O)CCN4CCCC4)cc3nc3cc(NC(=O)CCN4CCCC4)ccc23)cc1	0 (no)
C=CC(=O)N1CCN(c2nc(=O)n(-c3c(C)ccnc3C(C)C)c3nc(-c4c(O)cccc4F)c(F)cc23)C(C)C1 (centres undefined) + Cc1cnc(CNC(=O)c2c(=O)c3ccc(N4CCCN(C)CC4)nc3n3c2sc2ccccc23)cn1	1 (yes)
COc1ccc([C@@H](O)c2cc(-c3ncnc4cc(N5CCOCC5)ccc34)c(F)cc2Cl)nn1 + Cc1[nH]c2ccc(F)cc2c1-c1nc2c3cccnc3c3ncccc3c2[nH]1	0 (no)

Request: Record COc1ccc([C@@H](O)c2cc(-c3ncnc4cc(N5CCOCC5)ccc34)c(F)cc2Cl)nn1 + Cc1cnc(CNC(=O)c2c(=O)c3ccc(N4CCCN(C)CC4)nc3n3c2sc2ccccc23)cn1 : is its viability, T/C strictly below 90%?
Result: 1 (yes)
